System: NCI-H522 lung
PROTOCOL: NCI tumour cell line growth inhibition, 48 h
Attribute: TGI

>  <COMPOUND>
CC(C)(C)CC(C)(C)c1cc2c(O)c(c1)Cc1cc(C(C)(C)CC(C)(C)C)cc(c1O)Cc1cc(C(C)(C)CC(C)(C)C)cc(c1O)Cc1cc(C(C)(C)CC(C)(C)C)cc(c1O)Cc1cc(C(C)(C)CC(C)(C)C)cc(c1O)Cc1cc(C(C)(C)CC(C)(C)C)cc(c1O)C2

>  <RESULT>
> 100 µM

$$$$
>  <COMPOUND>
Cc1ccc(S(=O)(=O)/N=C(\N)N(C)N=O)cc1

>  <RESULT>
> 100 µM

$$$$
>  <COMPOUND>
O=C(Nc1cccc(Oc2nnc(Cl)c3ccccc23)c1)Nc1ccc(Cl)c(C(F)(F)F)c1

>  <RESULT>
3.46 µM

$$$$
>  <COMPOUND>
COC(=O)C1=C(C(=O)OC)C23CC1C1C(C(=O)OC)=C(C(=O)OC)C12C1C=CC3C2C(=O)OC(=O)C21 (stereo unspecified)

>  <RESULT>
63.5 µM

$$$$
>  <COMPOUND>
O=c1oc2ccccc2c(O)c1C1c2c(c3ccccc3oc2=O)Oc2c1c(=O)oc1ccccc21

>  <RESULT>
> 100 µM

$$$$
>  <COMPOUND>
C=C1CC[C@@H](Br)C(C)(C)[C@]12CCC(C)(O)C(Cl)C2 (stereo partly specified)

>  <RESULT>
32 µM

$$$$

Data request: Look up and report TGI, with NCI-H522 lung as system, for CC(=O)C1=C(C)Cn2c(=O)c3ccccc3c(=O)n2C1
Data returned: > 100 µM

Data request: Look up and report TGI, with NCI-H522 lung as system, for O=C1C(c2c(O)[nH]c3ccc(S(=O)(=O)O)cc23)=Nc2ccc(Br)cc21
Data returned: > 100 µM

Data request: Look up and report TGI, with NCI-H522 lung as system, for C=CCCCC1SC2=C(CC)CCCN2C1=O (stereo unspecified)
Data returned: > 100 µM

Data request: Look up and report TGI, with NCI-H522 lung as system, for O=C(CSC(c1ccccc1)c1ccccc1)N/N=C/c1cccc(Cl)c1
Data returned: 23.7 µM

Data request: Look up and report TGI, with NCI-H522 lung as system, for COC(=O)c1ccc(NC(=O)Nc2ccc3oc(=O)c4ccccc4c3c2)cc1
Data returned: > 100 µM

Data request: Look up and report TGI, with NCI-H522 lung as system, for CC(C)OC(=O)C1=C(O)c2ccccc2S(=O)(=O)N1
Data returned: > 100 µM

Data request: Look up and report TGI, with NCI-H522 lung as system, for Cc1noc(C)c1-c1cc(O)cc(C(O)c2ccccc2)c1 (stereo unspecified)
Data returned: > 100 µM

Data request: Look up and report TGI, with NCI-H522 lung as system, for ClCCN1CCOC1=Nc1ccc2c(c1)CCCC2
Data returned: 54.9 µM

Data request: Look up and report TGI, with NCI-H522 lung as system, for CN=C(NC#N)NCCSCc1nc[nH]c1C
Data returned: > 100 µM

Data request: Look up and report TGI, with NCI-H522 lung as system, for CC(Oc1ccc(OCC2CCCCC2)cc1)C(N)=O (stereo unspecified)
Data returned: > 100 µM
